target: HIV-1 RT M41L/L210W/T215Y (Human immunodeficiency virus type 1 group M subtype B, UniProt P03366, L809W/M640L/T814Y); construct: His6 (C); made in house; host or cells: E. coli XL1 Blue; test: Inhibition constants under steady-state nucleotide incorporation conditions; assay type: biochemical
quantity: Ki

{"columns": ["test smiles", "meas value"],
 "data": [
  ["Cc1cn([C@H]2C[C@H](N=[N+]=[N-])[C@@H](CO[P@](=O)(O)O[P@](=O)(O)OP(=O)(O)O)O2)c(=O)[nH]c1=O", "2180 nM"]
]}

* * *

test system: HIV-1 construct with RT M41L/L210W/T215Y/R284K; experiment: Phenotypic drug susceptibility of recombinant HIV-1 in MT-4 cells (tetrazolium-based colorimetric method); format: cell-based; details: M41L/L210W/T215Y/R284K virus, average ± SD of at least three tests
pIC50: −log10 of the molar value.

{"columns": ["compound", "target", "pIC50"],
 "data": [
  ["CC(C)OC(=O)OCOP(=O)(CO[C@H](C)Cn1cnc2c(N)ncnc21)OCOC(=O)OC(C)C.O=C(O)/C=C/C(=O)O [Tenofovir, tenofovir disoproxil fumarate]", "HIV-1 construct with RT M41L/L210W/T215Y/R284K", 7.74]
]}
